systemName: AKT1 WT (Homo sapiens, UniProt P31749)
Construct: expressed in transfected cells; host or cells: HEK293
Sequence (P31749 whole entry): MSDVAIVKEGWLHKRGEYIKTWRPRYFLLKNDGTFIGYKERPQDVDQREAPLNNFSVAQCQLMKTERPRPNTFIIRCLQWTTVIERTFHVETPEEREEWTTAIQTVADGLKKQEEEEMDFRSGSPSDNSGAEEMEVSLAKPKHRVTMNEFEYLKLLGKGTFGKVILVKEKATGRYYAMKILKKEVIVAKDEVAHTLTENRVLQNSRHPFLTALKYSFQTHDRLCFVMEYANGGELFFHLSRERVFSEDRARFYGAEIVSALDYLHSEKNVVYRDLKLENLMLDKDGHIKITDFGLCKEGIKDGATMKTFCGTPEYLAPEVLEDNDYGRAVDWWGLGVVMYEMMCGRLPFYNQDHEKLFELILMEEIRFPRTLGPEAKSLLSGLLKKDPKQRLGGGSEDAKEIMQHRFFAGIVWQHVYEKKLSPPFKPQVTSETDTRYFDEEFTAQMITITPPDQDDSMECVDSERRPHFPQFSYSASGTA
testSummary: Live cell AKT1 WT target engagement by NanoBRET competitive probe displacement in HEK293 cells
Assay type: binding
conditionDescription: NanoBRET competitive probe displacement, live HEK293 cells, 2 h at 37° C.; read-out: AKT1 WT IC50
pIC50: −log10 of the molar value.
assayEndpoint: pIC50

Nc1ncccc1-c1nc2ccc(-n3ccc(OC4CC4)n3)nc2n1-c1ccc2c(c1)CC[C@@H]2NC1CCN(C(=O)C2CC2)CC1 [Compound 497]: 7.72

I. Nc1ncccc1-c1nc2ccc(-n3ccc(OC(F)F)n3)nc2n1-c1ccc2c(c1)CC[C@@H]2NC1[C@@H]2COC[C@H]1CN(C(=O)C1CC1)C2 (stereo partly shown) [Compound 561]
II. Nc1ncccc1-c1nc2ccc(-n3ccc(N4CCS(=O)(=O)CC4)n3)nc2n1-c1ccc2c(c1)CC[C@@H]2NC1CCN(C(=O)C2CC2)CC1 [Compound 565]
Task: Higher pIC50: I or II ? Write down the label attached to your selection.
Output: II
(II: 8.01, I: 7.03)

a. Nc1ncccc1-c1nc2ccc(-n3cccn3)nc2n1-c1ccc2c(c1)CC[C@@H]2NC1CCN(C(=O)[C@@H]2C[C@@H]2F)CC1 [Compound 477]
b. CCOc1ccn(-c2ccc3nc(-c4cccnc4N)n(-c4ccc5c(c4)CC[C@@H]5NC4CCN(C(=O)C5CC5)CC4)c3n2)n1 [Compound 486]
Task: Which value of pIC50 is greater, the one for a or the one for b ? Answer = label.
Output: b

A. Nc1ncccc1-c1nc2ccc(-n3nccn3)nc2n1-c1ccc2c(c1)CC[C@@H]2NC(=O)c1cnc(C(F)(F)F)s1 [Compound 526]
B. Cc1oncc1C(=O)N1CCC(N[C@H]2CCc3cc(-n4c(-c5cccnc5N)nc5ccc(-n6cccn6)nc54)ccc32)CC1 [Compound 489]
Task: Sorting ascending by pIC50, which comes first: A or B ? Pick one; state its label.
Output: B
(B: 7.03, A: 7.69)

###

systemName: AKT1 WT (Homo sapiens)
Construct: expressed in transfected cells; host or cells: HEK293
testSummary: Live cell AKT1 WT target engagement by NanoBRET competitive probe displacement in HEK293 cells
Assay type: binding
conditionDescription: NanoBRET competitive probe displacement, live HEK293 cells, 2 h at 37° C.; read-out: AKT1 WT IC50
pIC50: −log10 of the molar value.
assayEndpoint: pIC50

Worked set:
Nc1ncccc1-c1nc2ccc(C#C[C@@H]3CCO3)nc2n1-c1ccc2c(c1)CC[C@@H]2NC(=O)c1ccc(C(F)F)nc1 [Compound 454]: 7.43
Cc1ccc(C(=O)N[C@H]2CCc3cc(-n4c(-c5cccnc5N)nc5c(C#N)cc(-n6nccn6)nc54)ccc32)cn1 [Compound 547]: 7.55
Nc1ncccc1-c1nc2ccc(-n3cccn3)nc2n1-c1ccc2c(c1)CC(F)[C@@H]2NC1CCc2cnccc21 (stereo partly drawn) [Compound 481]: 7.86

a. Nc1ncccc1-c1nc2ccc(-n3cccn3)nc2n1-c1ccc2c(c1)CC[C@@H]2NC1CCN(C(=O)[C@@H]2CCO2)CC1 [Compound 424]
b. N#Cc1nc2c(c(N3CCC(N[C@H]4CCc5cc(-n6c(-c7cccnc7N)nc7ccc(-n8cccn8)nc76)ccc54)CC3)n1)CCC2 [Compound 603]
c. Cc1ncc(C(=O)N[C@H]2CCc3cc(-n4c(-c5cccnc5N)nc5ccc(-n6nccn6)nc54)ccc32)s1 [Compound 492]
Task: Sort these compounds on pIC50 so the largest reading comes first. // ordering of labels required in reply
Output: b, c, a
(b: 8.12, c: 7.62, a: 6.91)

###

systemName: AKT1 WT (Homo sapiens, UniProt P31749)
Construct: expressed in transfected cells; host or cells: HEK293
testSummary: Live cell AKT1 WT target engagement by NanoBRET competitive probe displacement in HEK293 cells
Assay type: binding
conditionDescription: NanoBRET live cell target engagement, HEK293 cells, 2 h at 37° C.; read-out: AKT1 WT IC50
assayEndpoint: IC50 (nM)

Consider the reported IC50 for these compounds:
Nc1ncccc1-c1nc2ccc(-n3cccn3)nc2n1-c1ccc2c(c1)CC[C@@H]2NC(=O)c1ccc(-n2cccn2)nc1: 12
COc1ccc(C(=O)N[C@H]2CCc3cc(-n4c(-c5cccnc5N)nc5ccc(-n6cccn6)nc54)ccc32)cn1: 4.07
Cn1cc(Cc2nncn2[C@H]2CCc3cc(-n4c(-c5cccnc5N)nc5ccc(-n6cccn6)nc54)ccc32)cn1: 586
Nc1ncccc1-c1nc2ccc(-n3cccn3)nc2n1-c1ccc2c(c1)CC[C@@H]2NC1CCN(C(=O)c2ccccn2)CC1: 208

P. Nc1ncccc1-c1nc2ccc(-n3cccn3)nc2n1-c1ccc2c(c1)CC[C@@H]2NC(=O)c1cc(F)c2[nH]ncc2c1
Q. Nc1ncccc1-c1nc2ccc(-n3cccn3)nc2n1-c1ccc2c(c1)CC[C@@H]2NC(=O)c1cnc(C(F)F)nc1
Task: Sorting by IC50 in descending order, would P or Q appear first? Answer by stating the label of the chosen item.
Output: Q

A. CN1CC(Oc2cc(C(=O)N[C@H]3CCc4cc(-n5c(-c6cccnc6N)nc6ccc(-n7cccn7)nc65)ccc43)ccn2)C1
B. Cn1nccc1C(=O)N[C@H]1CCc2cc(-n3c(-c4cccnc4N)nc4ccc(-n5cccn5)nc43)ccc21
Task: // pick min by IC50: A , B Could you answer with the label of the item you picked?
Output: B
(B: 43.6 nM, A: 80 nM)

A. Nc1ncccc1-c1nc2ccc(-n3cccn3)nc2n1-c1ccc2c(c1)CC[C@@H]2NC(=O)c1cnc(C(F)F)cn1
B. CS(=O)(=O)Nc1ccc(C(=O)N[C@H]2CCc3cc(-n4c(-c5cccnc5N)nc5ccc(-n6cccn6)nc54)ccc32)cn1
C. Cc1cc2c(=O)n([C@H]3CCc4cc(-n5c(-c6cccnc6N)nc6ccc(-n7cccn7)nc65)ccc43)cnc2cn1
D. Cc1ccc(CN(C)[C@H]2CCc3cc(-n4c(-c5cccnc5N)nc5ccc(-n6cccn6)nc54)ccc32)cn1
Task: Exam item: list the entries in increasing order of IC50. Sort and list the labels as requested.
Output: D, A, C, B

###

systemName: AKT2 (Homo sapiens, UniProt P31751)
Construct: expressed in transfected cells; host or cells: HEK293
Sequence (P31751 whole entry): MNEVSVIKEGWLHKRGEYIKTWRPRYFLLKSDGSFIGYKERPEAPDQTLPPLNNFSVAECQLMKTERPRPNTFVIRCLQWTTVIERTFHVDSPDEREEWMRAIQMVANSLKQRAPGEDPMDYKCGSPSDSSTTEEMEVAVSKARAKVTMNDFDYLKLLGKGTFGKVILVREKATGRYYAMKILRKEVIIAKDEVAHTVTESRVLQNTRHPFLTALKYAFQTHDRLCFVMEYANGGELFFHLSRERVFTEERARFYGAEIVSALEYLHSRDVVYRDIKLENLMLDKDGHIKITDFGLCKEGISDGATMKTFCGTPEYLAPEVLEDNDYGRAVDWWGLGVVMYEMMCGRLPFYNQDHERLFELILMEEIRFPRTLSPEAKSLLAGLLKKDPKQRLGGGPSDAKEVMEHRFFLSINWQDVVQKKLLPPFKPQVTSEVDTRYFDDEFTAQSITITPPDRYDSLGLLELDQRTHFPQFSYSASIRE
testSummary: Live cell AKT2 target engagement by NanoBRET competitive probe displacement in HEK293 cells
Assay type: binding
conditionDescription: NanoBRET competitive probe displacement, live HEK293 cells, 2 h at 37° C.; read-out: AKT2 IC50
pIC50: −log10 of the molar value.
assayEndpoint: pIC50

Nc1ncccc1-c1nc2ccc(-n3cccn3)nc2n1-c1ccc2c(c1)CC[C@@H]2NC1CC2(CCCN(c3ccccn3)C2)C1 (stereo partly drawn) [Compound 467]: 5.45

P. Nc1ncccc1-c1nc2ccc(-n3cccn3)nc2n1-c1ccc2c(c1)CC[C@@H]2NC1CCN(c2cccnc2)C1 (stereo partly drawn) [Compound 471]
Q. Nc1ncccc1-c1nc2ccc(-n3ccc(N4CCOCC4)n3)nc2n1-c1ccc2c(c1)CC[C@@H]2NC1CCN(C(=O)C2CC2)CC1
R. N#Cc1cc(-n2nccn2)nc2c1nc(-c1cccnc1N)n2-c1ccc2c(c1)CC[C@@H]2NC(=O)c1ccc(C(F)F)nc1
S. Nc1ncccc1-c1nc2ccc(-n3cccn3)nc2n1-c1ccc2c(c1)CC[C@@H]2NC1CCN(C(=O)C2CC2)C1 (stereo partly drawn) [Compound 462]
Task: Task field, ranking: reported pIC50, descending order. When ranking, write the labels in the order the request describes.
Output: Q, P, S, R
(Q: 7.01, P: 5.98, S: 5.63, R: 5.39)

###

systemName: AKT2 (Homo sapiens)
Construct: expressed in transfected cells; host or cells: HEK293
testSummary: Live cell AKT2 target engagement by NanoBRET competitive probe displacement in HEK293 cells
Type: binding
conditionDescription: NanoBRET live cell target engagement, HEK293 cells, 2 h at 37° C.; read-out: AKT2 IC50
Method: Determining live cell AKT1 E17K, AKT1 WT, and AKT2 target engagement by NanoBRET competitive probe displacement. […] Briefly, HEK293 cells were transfected with plasmids encoding kinase-NanoLuciferase fusion proteins overnight. […] After incubation for 2 h at 37° C., luciferase substrate and extracellular luciferase inhibitor were added to all wells, and luminescent intensity at 460 nm and 600 nm were measured on a multimode plate-reader. […]
assayEndpoint: IC50 (nM)

CCc1coc(C(=O)N[C@H]2CCc3cc(-n4c(-c5cccnc5N)nc5ccc(-n6cccn6)nc54)ccc32)n1 [Compound 57]: 52.8
CCC(=O)N1CCC(N[C@H]2CCc3cc(-n4c(-c5cccnc5N)nc5ccc(-n6cccn6)nc54)ccc32)CC1 [Compound 278]: 3290
Nc1ncccc1-c1nc2ccc(-n3nccn3)nc2n1-c1ccc2c(c1)CC(F)[C@@H]2NC(=O)c1ccc(C(F)F)nc1 (some centres unmarked) [Compound 350]: 423
Nc1ncccc1-c1nc2ccc(-n3cccn3)nc2n1-c1ccc2c(c1)CC[C@@H]2NC(=O)c1ccnc2occc12 [Compound 282]: 68.9
Cc1ncccc1-c1cn([C@H]2CCc3cc(-n4c(-c5cccnc5N)nc5ccc(-n6cccn6)nc54)ccc32)nn1 [Compound 254]: 753

1. Nc1ncccc1-c1nc2ccc(-n3cccn3)nc2n1-c1ccc2c(c1)CC[C@@H]2n1cc(C2CC2)nn1 [Compound 221]
2. Cc1cnc(C(=O)N[C@H]2CCc3cc(-n4c(-c5cccnc5N)nc5ccc(-n6cccn6)nc54)ccc32)c(C)n1 [Compound 207]
3. Nc1ncccc1-c1nc2ccc(-n3cccn3)nc2n1-c1ccc2c(c1)CC[C@@H]2NC(=O)COc1ccon1 [Compound 5]
Task: Could you please sort these 3 entries by IC50 from high to low? Use the labels to give the ranking in the order requested.
Output: 2, 3, 1
(2: 2520 nM, 3: 1410 nM, 1: 449 nM)

P. Cc1nnc(C)n1[C@H]1CCc2cc(-n3c(-c4cccnc4N)nc4ccc(-n5cccn5)nc43)ccc21 [Compound 272]
Q. Nc1ncccc1-c1nc2ccc(-n3cccn3)nc2n1-c1ccc2c(c1)CC[C@@H]2N1CCCC1 [Compound 330]
Task: Identify the entry with the smaller IC50: P or Q . Give the label under which the chosen entry appears.
Output: P
(P: 604 nM, Q: 1190 nM)
